Below, each entry is listed with its recorded melting point.

# molecule, melting point
measured = [
    ("CC(C(=O)O)c1cs/c(=N\\C(=O)CS(=O)(=O)c2ccccc2)n1O (centres unmarked) (hydrate or solvate) [compound 6]", "204 to 207 °C"),
    ("CC1(C(=O)/N=c2\\scc(CC(=O)O)n2O)CCN(S(=O)(=O)c2ccccc2)C1 (centres unmarked) (hydrate or solvate) [compound 29]", "158 to 161 °C"),
    ("O=C(O)Cc1csc(=NC(=O)C2CCN(S(=O)(=O)c3ccc(Cl)cc3)C2)n1O (centres unmarked) (hydrate or solvate) [compound 35]", "195 to 197 °C"),
    ("O=C(O)Cc1csc(=NC(=O)C2CCN(S(=O)(=O)c3ccc4ccccc4c3)C2)n1O (centres unmarked) (hydrate or solvate) [compound 40]", "181 to 184 °C"),
    ("O=C(O)Cc1cs/c(=N\\C(=O)CNS(=O)(=O)c2ccccc2)n1O [compound 19]", "178 to 180 °C"),
    ("O=C(O)Cc1cs/c(=N\\C(=O)CCNS(=O)(=O)c2ccccc2)n1O (hydrate or solvate) [compound 20]", "178 to 180 °C"),
    ("O=C(O)Cc1cs/c(=N\\C(=O)C2CCCN2S(=O)(=O)c2ccccc2)n1O (centres unmarked) (hydrate or solvate) [compound 28]", "> 190 °C (dec.)"),
    ("O=C(O)Cc1cs/c(=N\\C(=O)C2CN(S(=O)(=O)c3ccccc3)C2)n1O [compound 24]", "170 to 173 °C"),
    ("O=C(O)Cc1cs/c(=N\\C(=O)CNC(=O)c2ccccc2)n1O (hydrate or solvate) [compound 16]", "181 to 183 °C"),
    ("O=C(O)Cc1csc(=NC(=O)C2CCN(S(=O)(=O)c3ccc(-c4ccccc4)cc3)C2)n1O (centres unmarked) [compound 38]", "180 to 183 °C"),
]

# input Answer with reported melting point of O=C(O)Cc1csc(=NC(=O)C2CCN(S(=O)(=O)c3ccccc3)C2)n1O (centres unmarked) [compound 26]
# output 185 to 187 °C

# input Answer with reported melting point of O=C(O)Cc1csc(=NC(=O)C2CCN(S(=O)(=O)C3CCCC3)C2)n1O (centres unmarked) [compound 43]
# output 177 to 180 °C

# input Answer with reported melting point of O=C(O)Cc1csc(=NC(=O)C2CCN(S(=O)(=O)c3ccc(Oc4ccccc4)cc3)C2)n1O (centres unmarked) [compound 39]
# output 179 to 183 °C

# input Answer with reported melting point of O=C(O)Cc1csc(=NC(=O)C2CCN(S(=O)(=O)c3ccc(C(F)(F)F)cc3)C2)n1O (centres unmarked) (hydrate or solvate) [compound 37]
# output 183 to 185 °C

# input Answer with reported melting point of O=C(O)Cc1csc(=NC(=O)C2CCN(S(=O)(=O)c3cccc(Cl)c3)C2)n1O (centres unmarked) (hydrate or solvate) [compound 34]
# output 178 to 182 °C
